# run_description: collision cross section in nitrogen (drift tube, single-field); higher = larger gas-phase ion size;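 further: chemical standards at 10 µM analysed by drift tube IMS-QTOF MS in about 3.95 torr nitrogen, mean of duplicate injections differing ≤1%, mass error below 10 ppm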
# stated_conditions: ion type: [M+H]; ion source: APCI; ion mode: Positive
Counter-ions that a name gives are not always drawn.
property_name: collision cross section in nitrogen (Å²)
Kindly answer with a numeric value in Å², unit omitted.

Illustrative cases are given below, each with its answer.
| molecule | collision cross section in nitrogen (Å²) |
| --- | --- |
| CCc1cc(C(N)=S)ccn1 [Ethionamide] | 137.5 |
| COc1ccnc(CS(=O)c2nc3cc(OC(F)F)ccc3[nH]2)c1OC (configuration not stated) [Pantoprazole sodium] | 185.5 |
| CC(C)(C)c1cc(/C=C2\SC(=N)NC2=O)cc(C(C)(C)C)c1O [Darbufelone mesylate] | 188.3 |
| CCCCc1nc(Cl)c(CO)n1Cc1ccc(-c2ccccc2-c2nnn[nH]2)cc1 | 201.6 |
| COc1ccc(-n2nc(C(F)F)cc2-c2ccc(S(C)=O)cc2)cc1 (configuration not stated) | 187.8 |

Need collision cross section in nitrogen of CCOC(=O)COc1ccc2c(c1)CC(NCC(O)c1cccc(Cl)c1)CC2 (configuration not stated) , thanks.
192.3

Need collision cross section in nitrogen of COCC(=O)N(c1c(C)cccc1C)[C@H](C)C(=O)OC [Metalaxyl-M] , thanks.
160.5

Need collision cross section in nitrogen of CCNc1nc(NC(C)CC)nc(OC)n1 (configuration not stated) , thanks.
155.3

Need collision cross section in nitrogen of `Cc1cccc(N)n1` , thanks.
118.6

Need collision cross section in nitrogen of Cc1ccc(O)cn1 [6-Methyl-3-hydroxypyridine] , thanks.
118.1

Values were extracted from the supplement of paper PMC12317010.
